Would you mind telling me the reported Inhibition of each entry?
Tested on: Plasmodium falciparum
Test: GSK_TCMDC: Inhibition of Plasmodium falciparum 3D7 in whole red blood cells, using parasite LDH activity as an index of growth. Test compounds present at 2uM
Format: functional
// return numeric value only (unit: %, not printed)

Reported Inhibition ( CN1CC=C(c2c[nH]c3ccc(Oc4ccccc4)cc23)CC1.O=C(O)C(=O)O ) = 98

Reported Inhibition ( CCC(C)CN1CCC(N(C)c2cc(NC(=O)c3ccc(F)cc3)ccn2)CC1.O=C(O)C(F)(F)F (stereo not given) ) = 93

Reported Inhibition ( CC[C@H]1CN2CC[C@H]1C[C@H]2[C@H](O)c1cc(-c2cccc(F)c2)nc2ccc(OC)cc12.Cl ) = 99

Reported Inhibition ( O=C(NC1CCC(CN2CCC(c3c[nH]c4ccccc34)CC2)CC1)[C@H]1Cc2ccccc2CN1 (stereo not given in full) ) = 89

Reported Inhibition ( CCN(CC)CCN1C(=O)C(O)(c2ccccc2Cl)c2c1cc(C(N)=O)cc2C(F)(F)F.Cl (stereo not given) ) = 100

Reported Inhibition ( Cc1c2ccncc2c(C)c2c1[nH]c1ccccc12 [ELLIPTECINE] ) = 95

Reported Inhibition ( O.Oc1cccc(C2CCCN(CCc3c[nH]c4ccccc34)C2)c1 (stereo not given) ) = 93

Reported Inhibition ( COc1cc2c(c(OC)c1OC)C[C@H]1c3c(cc4c(c3-2)OCO4)CCN1C ) = 84

Reported Inhibition ( Brc1cnc(NC2=NCCN2)c(Br)c1.Cl ) = 99

Reported Inhibition ( O=C(/C=C/c1cccc(Cl)c1)NC1CCC(CN2CCC(c3c[nH]c4ccccc34)CC2)CC1 (stereo not given) ) = 100
